Value source: patent US8716282B2

# experimental-protocol: Solubility as a function of pH at 20° C.
# Assay type: physicochemical
# recorded-conditions: pH 12.5, aqueous buffer, thermodynamic from solid, 0.1N NaOH, pH of solution 12.5, phosphate salt, read-out: Solubility (mg/mL) of compound 1d
endpoint-name: solubility (mg/mL)
One number for each entry, in mg/mL.

INPUT: If you can, please state the reported solubility value of COCCc1ccc(-c2c(C)nc3c(N4CCOCC4)ccnn23)cn1.O=P(O)(O)O [Compound 1d] .
OUTPUT: 0.1

* * *

# experimental-protocol: Solubility as a function of pH at 20° C.
# Format: physicochemical
# recorded-conditions: pH 2.6, thermodynamic from solid, water, pH of solution 2.6, phosphate salt, read-out: Solubility (mg/mL) of compound 1d
endpoint-name: solubility (mg/mL)
Numbers only, in mg/mL.

INPUT: Which value of solubility has been reported for COCCc1ccc(-c2c(C)nc3c(N4CCOCC4)ccnn23)cn1.O=P(O)(O)O in the records?
OUTPUT: 9.7
